Each entry below carries its recorded inhibition.
experiment_notes: inhibitors of E-selectin induction by TNFa, primary screen, imaging, HUVEC, immunofluorescence, MLSMR starter and 10KST1 sets (AID 487);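 note: signal is fraction of cell area covered by stained E-selectin grains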
recorded_conditions: HUVEC TNFalpha-induced E-selectin immunofluorescence imaging, at 2 µM; stronger effect = higher value
Report the value in % with no unit label.

# example entries with known answers
compound: O=C(CCNNC(=O)c1ccncc1)NCc1ccccc1
inhibition (%): -81.8
--
compound: CCCOc1cccc(C2/C(=C(/O)c3ccccc3)C(=O)C(=O)N2CCN(C)C)c1 (stereo not drawn)
inhibition (%): -90.6
--
compound: N#Cc1nc(COc2ccc(Br)cc2)oc1N1CCCC1
inhibition (%): 14.5
--
compound: CC(C)Cc1ccc(C(C)C(=O)O)cc1 (stereo not drawn)
inhibition (%): -67.2
--
compound: C=CCSc1nc(C)c(CC=C)c(=O)[nH]1
inhibition (%): -71.1
--
compound: COC(=O)c1nn2c(C(F)(F)F)cc(-c3ccc(Br)o3)nc2c1Br
inhibition (%): 1.9
--
compound: CN(C)c1nc(N(C)C)nc(N(C)C)n1
inhibition (%): -118
--
compound: CCOC(=O)CC(=O)CSc1nc2c(cc1C#N)CCCCCC2
inhibition (%): 25.1
--
compound: CN1CCN(CCCN2c3ccccc3Sc3ccc(Cl)cc32)CC1
inhibition (%): -67.5
--
compound: Cn1c(NCCN2CCCCC2)cc(=O)n(C)c1=O
inhibition (%): -24.8

Q: What does the record list as inhibition for "OC1(c2cccc(C(F)(F)F)c2)CCN(c2ncnc3c2[nH]c2ccccc23)CC1" ?
Result: -95

Q: Please give the result for COc1cc(C2C(C(=O)c3ccc(C)o3)=C(O)C(=O)N2c2cc(C)on2)cc(OC)c1OC (stereo not drawn) too.
Result: -101

Q: Please give the result for "CCOC(=O)CSc1nc(C)c(C(C)=O)cc1C#N" too.
Result: -0.7

Q: Please give the result for "CCOC(=O)CCc1c(C)c(C#N)c2nc3ccccc3n2c1-n1ccnc1" too.
Result: -37.8
